# Test system: MDA-MB-468 breast
# experimental-protocol: NCI-60 one-dose screen, 48 h (100 = growth as untreated, 0 = no growth, -100 = all killed)
# condition-set: 10 µM unless noted
Compounds without any hit were thinned out: in the full panel of roughly 83,000, 20% have a hit.
Mark each entry criterion met if its growth sits below 60%, and criterion not met for all others.

Illustrative cases are given below, each with its answer.
molecule | assigned-category
COc1ccc(/C=C2\CCCC3=C2N=C2SC(C)=CN2C3c2ccc(OC)cc2)cc1 (stereo not given) | criterion not met
CN(C)c1ccc(N=Cc2ccc(N3CCOCC3)cc2)cc1 | criterion met
Cc1ccc(-n2c3c(c(-c4ccccc4)c2-c2ccccc2)C2=NCCN2C=N3)cc1 | criterion not met
O=NN(Cc1cccnc1)C(=O)NC1CCCCC1 | criterion not met
C=CC(=O)NC(=O)Nc1ccccc1Cl | criterion met
CC(C)(C)CC(N)=O | criterion not met
CCCCC(CCc1ccc([N+](=O)[O-])cc1)(C(C)=O)C(=O)OCC (stereo not given) | criterion not met
C=C(NC(=O)C(=C)NC(=O)c1csc(C2=NC3c4csc(n4)C4NC(=O)c5csc(n5)C(C(C)(O)C(C)O)NC(=O)C5CSC(=N5)C(=CC)NC(=O)C(C(C)O)NC(=O)c5csc(n5)C3(CC2)NC(=O)C(C)NC(=O)C(=C)NC(=O)C(C)NC(=O)C(C(C)CC)NC2C=Cc3c(C(C)O)cc(nc3C2O)C(=O)OC4C)n1)C(N)=O (stereo not given) | criterion met
CCCC(=O)c1cccs1 | criterion not met
Nc1c(C(=O)Nc2cccc3ccccc23)sc2nc3c(cc12)COCC3 | criterion met

Quick check: does COc1ccc(NC2=C(Cl)C(=O)c3nc(C)ccc3C2=O)cc1OC have growth under 60%?
criterion met

Take the molecule COc1ccc2c(c1)c(CC(=O)O)c(C)n2C(=O)c1ccc(Cl)cc1 and say whether its growth is less than 60%.
criterion not met

Confirm or reject: growth of O=C1/C(=C/c2ccc(F)c(F)c2)CN(C(=O)C(Cl)Cl)C/C1=C\c1ccc(F)c(F)c1 lies strictly below 60%
criterion met

====

# Tested on: MDA-MB-468 breast
# experimental-protocol: NCI-60 one-dose screen, 48 h (100 = growth as untreated, 0 = no growth, -100 = all killed)
# condition-set: 10 µM unless noted
About 83,000 compounds went through this panel and 20% of them were active in at least one assay; those are over-represented in the sample as a whole. Active and inactive are the calls of the source. The calls were made as follows: active = growth percent below 10; inactive = the rest.
measure-name: growth

// known answers, use as guide
compound | measure-name | measured
COc1ccc(C(=O)Nn2c(NCC(=O)N3c4ccccc4Sc4ccccc43)nnc2-c2ccc(O)cc2)cc1 | growth | 107% (inactive)
O=C(CNc1c(Cl)cccc1Cl)Nc1ccc(-c2nc3ccccc3s2)cc1 | growth | -7.4% (active)
C=CC[P+](c1ccccc1)(c1ccccc1)c1ccccc1 | growth | 10.9% (inactive)

Parameter requested: growth. Apply to each item below.
1. C=C(C)[C@@H]1CC[C@]2(C(=O)N3CCN(C)CC3)CC[C@]3(C)[C@H](CC[C@@H]4[C@@]5(C)C/C(=C/c6cccnc6)C(=O)C(C)(C)[C@@H]5CC[C@]43C)[C@@H]12
2. O=c1cc(N/N=C/c2ccc(F)cc2)c2cc(Cl)ccc2[nH]1
3. Nc1nc(N)c2c(n1)NC(c1ccc(Cl)cc1)CC(c1cccc(Nc3ccncc3)c1)=N2 (centres undefined)
4. CCN(CC)Cc1cc(Nc2c3ccccc3nc3cc(Cl)ccc23)ccc1O

1. 51.5% (inactive)
2. 73% (inactive)
3. 57.4% (inactive)
4. -72.4% (active)

Report growth for every entry below.
1. O=c1cc(-c2ccccc2)nc(SCc2nc3cc(Cl)c(Cl)cc3[nH]2)[nH]1
2. CCN1C(=O)N(CC)C2Nn3c(s/c(=C\c4cccc(F)c4)c3=O)=NC21 (centres undefined)
3. COC(=O)[C@@H](Cc1c[nH]c2ccccc12)NC(=O)/C=C/c1ccccc1
4. N#Cc1c(-c2cccc(Cl)c2)cc(-c2cccc(F)c2)[nH]c1=O
5. CN(C)c1ccc(/C=C\N=Nc2ccc(Br)cc2)cc1
6. COc1ccc(C(=O)n2nc(-c3ccccc3)nc2N)cc1OC
7. CCC(=O)Oc1c(C)cc(O)c2ccccc12
8. COc1cc2nc(-c3ccc(Cl)cc3)cc(OCCCN3CCC(O)CC3)c2cc1OC

1. 116% (inactive)
2. 17.8% (inactive)
3. 19.6% (inactive)
4. 87.1% (inactive)
5. 106% (inactive)
6. 68.8% (inactive)
7. 5.03% (active)
8. 52.9% (inactive)

Count: 5. Required value per item: growth.
1. CC(C)(C)OC(=O)CC1(O)CCCCC1
2. O=C(N/N=C/c1ccc(Cl)cc1Cl)c1ccc2nc(-c3ccc(Cl)cc3)[nH]c2c1
3. CC(=O)OC[C@]12CC[C@@H](C(=O)/C=C/c3cccnc3)[C@@H]1[C@H]1CC[C@@H]3[C@@]4(C)CC[C@H](OC(C)=O)C(C)(C)[C@@H]4CC[C@@]3(C)[C@]1(C)CC2
4. COc1ccc(C2=NN(C(=O)c3cc(OC)c(OC)c(OC)c3)C(c3ccc(Cl)cc3)C2)cc1OC (centres undefined)
5. O=c1c2cccc(Cl)c2sc2c(NCCCNCCO)nc3ccccc3c12

94.5% (inactive)
-44.1% (active)
-44% (active)
9.76% (active)
-19.5% (active)

Provide growth values for the following items, in order.
1. COC(=O)CCC1=C(CC(=O)OC)C(C)=N/C1=C\c1[nH]c(-c2ccc[nH]2)cc1OC
2. CC(=O)Oc1ccccc1C(=O)Nc1cc(C(C)C)ccc1C
3. CN(C)c1ccc(/C=C/C(=O)c2ccc(-n3cc(CN4CCN(c5cc6c(cc5F)c(=O)c(C(=O)O)cn6C5CC5)CC4)nn3)cc2)cc1
4. CC(=O)O[C@H]1[C@@H]2OC(=O)C(CSc3ccccc3)[C@@H]2C[C@H]2O[C@]2(C)CC/C=C(\C)CCC[C@@H]1C (some centres undefined)
5. O=C1c2ccccc2C(=O)c2c1oc1c2c(=O)[nH]c2ccc(Cl)cc21
6. O=C(NCc1ccccc1)/C(=C/c1ccccc1)NC(=O)c1ccccc1

61.9% (inactive)
-5.42% (active)
32.9% (inactive)
-10% (active)
-32.4% (active)
93.9% (inactive)

====

# Test system: MDA-MB-468 breast
# experimental-protocol: NCI-60 one-dose screen, 48 h
# condition-set: 10 µM unless noted
Compounds without any hit were thinned out: in the full panel of roughly 83,000, 20% have a hit. Active and inactive are the calls of the source. How the source made its calls: active means growth percent below 10; inactive means the rest.
Field 'call' accepts 1 (yes) = active, 0 (no) = inactive

Called result for Nc1[nH]c(=S)nc2oc(-c3ccccc3)c(-c3ccccc3)c12
0 (no)

====

# Test system: NCI/ADR-RES ovarian
# experimental-protocol: NCI-60 one-dose screen, 48 h (100 = growth as untreated, 0 = no growth, -100 = all killed)
# condition-set: 10 µM
This is part of a sample that, as a whole, favours compounds with a hit. Of some 83,000 tested, about 20% had one in any assay. Active and inactive are the calls of the source. The calls were made as follows: active = growth percent below 10; inactive = the rest.
measure-name: growth

Consider the worked cases shown below.
compound | study-target | measure-name | measured
O=C(Nc1ccc(OCc2ccc(F)cc2)cc1)Nc1ccc(Cl)c(C(F)(F)F)c1 | NCI/ADR-RES ovarian | growth | 4.62% (active)
Cc1ccc(-c2nc(C#N)c(S(=O)(=O)N3CCN(S(C)(=O)=O)CC3)o2)cc1 | NCI/ADR-RES ovarian | growth | 57.6% (inactive)
O=C(CSc1nc2ccccc2c(=O)n1-c1ccc(Cl)cc1)Nc1ccc(-c2nc3ccc([N+](=O)[O-])cc3[nH]2)cc1 | NCI/ADR-RES ovarian | growth | 61.3% (inactive)

Would you mind giving growth for every compound in the list below?
1. Cn1cc(-c2nc(N)nnc2-c2c[nH]c3ccccc23)c2cc(Br)cnc21
2. CCOC(=O)C1=C(N)N(c2ccc(C)cc2)C2=C(C(=O)CC(C)(C)C2)C1c1ccccc1Br (centres undefined)
3. O=[N+]([O-])c1cccc(-c2nnc3c(/C=C/c4ccccc4O)nc4ccccc4n23)c1

1: 3.11% (active); 2: 95.7% (inactive); 3: 57.5% (inactive)

Batch request: growth for each of the following compounds.
1. O=C(c1ccc(Cl)cc1)C(c1c[nH]c2ccccc12)c1c[nH]c2ccccc12
2. O=C(c1ccccc1)c1ccc2nc(-c3ccccc3Br)[nH]c2c1
3. O=C(c1ccc(F)cc1)C(c1c[nH]c2ccccc12)c1c[nH]c2ccccc12

11% (inactive)
0.18% (active)
54.7% (inactive)

====

# Tested on: MDA-MB-468 breast
# experimental-protocol: NCI-60 one-dose screen, 48 h (100 = growth as untreated, 0 = no growth, -100 = all killed)
# condition-set: 10 µM unless noted
This is part of a sample that, as a whole, favours compounds with a hit. Of some 83,000 tested, about 20% had one in any assay.
measure-name: growth (%)
Give bare numbers, in %.

These recorded examples may help you get a feel for the data.
compound | measured
Nc1ncnc2c1ncn2C1(CO)OCC(O)C(O)C1O (stereo not given) | 108
CC(C)NC(=O)c1cc(-c2ccc(NC(=O)Nc3ccc(F)c(C(F)(F)F)c3)cc2)nc2cccnc12 | 81.4
NC(Cc1ccc(O)cc1)C(=O)N/N=C/c1ccccc1O (stereo not given) | 108

Please state growth for every compound in the list that follows.
1. COc1ccc(SC2c3cc(OC)c(OC)cc3Oc3nc(N)c(C#N)c(N)c32)cc1 (stereo not given)
2. COC1=CC(c2ccc[nH]2)=N/C1=C\c1[nH]c(C)c(C(=O)CCCCC(=O)Oc2ccc3c(c2)CCC2C3CC[C@]3(C)[C@@H](O)CC[C@@H]23)c1C (stereo not given in full)
3. CC(=O)c1c(C)c2cnc(Nc3ccc(N4CCNCC4)cn3)nc2n(C2CCCC2)c1=O
4. CCCCOCCOCCOCc1cc2c(cc1Br)OCO2
5. N#Cc1ccc(NC(=O)Nc2nc3ccc(OC(F)(F)F)cc3s2)cc1
6. Cc1ccc2nc3c(nc2c1)-c1cccc2cccc-3c12

-40.7
52.2
26.9
102
-2.64
48.1

Values compiled from PubChem BioAssay (NCI).
